# protocol.description: in vitro
# settings: human
observed.property: viability at 1.1 µM

Query: Using the record for CN[C@@H]1C[C@H]2O[C@@](C)([C@@H]1OC)n1c3ccccc3c3c4c(c5c6ccccc6n2c5c31)C(=O)NC4 [Staurosporine, staurosporine, reference compound] , report its viability at 1.1 µM.
Reply: 13.9%

* * *

# protocol.description: SK-MEL-28 cell line toxicity (Cell titer Glo viability)
# Format: cell-based
# settings: human, SK-MEL-28 melanoma cells; SK-MEL-28, 0.014 uM, 72 h
observed.property: viability at 72 h, 0.014 µM (%)
Write it as a number; the unit % goes unstated.

Query: Using the record for CN[C@@H]1C[C@H]2O[C@@](C)([C@@H]1OC)n1c3ccccc3c3c4c(c5c6ccccc6n2c5c31)C(=O)NC4 [Staurosporine, staurosporine, reference compound] , report its viability at 72 h, 0.014 µM.
Reply: 92.9

* * *

# System: IL-6
# protocol.description: IL-6 secretion assay in human PBMCs (LPS-stimulated, ELISA)
# Format: cell-based
# settings: PBMC, LPS 100 ng/mL 6 hr, read-out: IL6 inhibitory activity IC50
The entries below are paired with their reported pIC50.
Notebook: values listed as pIC50 are -log10 of the concentration (mol/L).

CCCCCc1cc(OC)c2c(c1OC)OC(C)(CCC=C(C)C)C=C2 (centres unmarked) = 4.84
CCCCCC1=C(NCCC)C(=O)C2=C(OC(C)(CCC=C(C)C)C=C2)C1=O (centres unmarked) = 5.03
CCCCCC1=CC(=O)C2=C(OC(C)(CCC=C(C)C)C=C2)C1=O (centres unmarked) = 5.92
CCCCCc1cc(OC(C)=O)c2c(c1OC(C)=O)OC(C)(CCC=C(C)C)C=C2 (centres unmarked) = 5.06

Query: Using the record for `CCCCCC1=CC(=O)C2=C(O[C@](C)(CCC=C(C)C)C=C2)C1=O` , report its pIC50.
Reply: 5.97

* * *

# protocol.description: SK-MEL-28 cell line toxicity (Cell titer Glo viability)
# Type: cell-based
# settings: human, SK-MEL-28 melanoma cells; SK-MEL-28, 0.0015 uM, 72 h
observed.property: viability at 72 h, 0.0015 µM (%)
Write it as a number; the unit % goes unstated.

Query: Using the record for CN[C@@H]1C[C@H]2O[C@@](C)([C@@H]1OC)n1c3ccccc3c3c4c(c5c6ccccc6n2c5c31)C(=O)NC4 [Staurosporine, staurosporine, reference compound] , report its viability at 72 h, 0.0015 µM.
Reply: 96.7

* * *

# protocol.description: PC3 cell line toxicity (Cell titer Glo viability)
# Type: cell-based
# settings: human, PC3 prostate adenocarcinoma cells; PC3, 0.37 uM, 72 h
observed.property: viability at 72 h, 0.37 µM (%)
Write it as a number; the unit % goes unstated.

Query: Using the record for CN[C@@H]1C[C@H]2O[C@@](C)([C@@H]1OC)n1c3ccccc3c3c4c(c5c6ccccc6n2c5c31)C(=O)NC4 [Staurosporine, staurosporine, reference compound] , report its viability at 72 h, 0.37 µM.
Reply: 9.5

* * *

# protocol.description: in vitro
# settings: human
observed.property: viability at 0.0046 µM (%)
Write it as a number; the unit % goes unstated.

Query: Using the record for CN[C@@H]1C[C@H]2O[C@@](C)([C@@H]1OC)n1c3ccccc3c3c4c(c5c6ccccc6n2c5c31)C(=O)NC4 [Staurosporine, staurosporine, reference compound] , report its viability at 0.0046 µM.
Reply: 90.4
